Protein target, amino acids: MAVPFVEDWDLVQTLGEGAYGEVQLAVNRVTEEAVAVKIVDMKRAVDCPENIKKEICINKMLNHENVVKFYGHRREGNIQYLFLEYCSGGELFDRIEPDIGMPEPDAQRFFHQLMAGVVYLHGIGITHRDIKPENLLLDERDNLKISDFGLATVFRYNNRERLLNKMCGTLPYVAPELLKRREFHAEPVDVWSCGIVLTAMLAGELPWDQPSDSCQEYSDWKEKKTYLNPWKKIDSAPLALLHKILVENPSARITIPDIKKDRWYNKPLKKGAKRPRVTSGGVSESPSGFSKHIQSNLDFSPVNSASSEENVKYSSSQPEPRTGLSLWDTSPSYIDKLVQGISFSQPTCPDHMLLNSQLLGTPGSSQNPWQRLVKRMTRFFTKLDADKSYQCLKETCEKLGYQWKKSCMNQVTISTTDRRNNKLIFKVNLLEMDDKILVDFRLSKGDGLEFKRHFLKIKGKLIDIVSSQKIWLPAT

| Compound | IC50 |
| --- | --- |
| C[C@H]1CN(c2c(NC(=O)c3ccc(F)c(-c4c(F)cccc4F)n3)cnc3c2CC[C@H]3O)C[C@@H](N)[C@@H]1O.O=P(O)(O)O [INCB053914] | > 20 µM |

----------
Measured On: CHEK2 (Homo sapiens, UniProt O96017)
Sequence (O96017 whole entry): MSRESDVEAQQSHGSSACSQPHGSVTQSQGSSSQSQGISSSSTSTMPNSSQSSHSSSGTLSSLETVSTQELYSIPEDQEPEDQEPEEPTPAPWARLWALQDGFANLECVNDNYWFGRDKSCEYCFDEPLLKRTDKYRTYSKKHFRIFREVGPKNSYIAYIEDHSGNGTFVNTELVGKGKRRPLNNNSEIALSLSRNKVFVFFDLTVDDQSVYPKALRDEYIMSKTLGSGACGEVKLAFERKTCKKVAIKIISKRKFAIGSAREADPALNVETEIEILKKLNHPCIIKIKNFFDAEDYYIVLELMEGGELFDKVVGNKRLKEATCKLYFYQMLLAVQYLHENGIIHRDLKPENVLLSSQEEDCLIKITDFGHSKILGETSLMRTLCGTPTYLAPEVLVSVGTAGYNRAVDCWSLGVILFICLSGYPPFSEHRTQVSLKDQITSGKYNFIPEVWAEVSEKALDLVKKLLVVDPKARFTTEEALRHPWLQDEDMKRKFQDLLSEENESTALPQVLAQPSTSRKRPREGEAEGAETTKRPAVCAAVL

| Smiles Notation | IC50 |
| --- | --- |
| C[C@H]1CN(c2c(NC(=O)c3ccc(F)c(-c4c(F)cccc4F)n3)cnc3c2CC[C@H]3O)C[C@@H](N)[C@@H]1O.O=P(O)(O)O | > 20 µM |

----------
Measured On: FLT3 (Homo sapiens)
Sequence (P36888 27-993): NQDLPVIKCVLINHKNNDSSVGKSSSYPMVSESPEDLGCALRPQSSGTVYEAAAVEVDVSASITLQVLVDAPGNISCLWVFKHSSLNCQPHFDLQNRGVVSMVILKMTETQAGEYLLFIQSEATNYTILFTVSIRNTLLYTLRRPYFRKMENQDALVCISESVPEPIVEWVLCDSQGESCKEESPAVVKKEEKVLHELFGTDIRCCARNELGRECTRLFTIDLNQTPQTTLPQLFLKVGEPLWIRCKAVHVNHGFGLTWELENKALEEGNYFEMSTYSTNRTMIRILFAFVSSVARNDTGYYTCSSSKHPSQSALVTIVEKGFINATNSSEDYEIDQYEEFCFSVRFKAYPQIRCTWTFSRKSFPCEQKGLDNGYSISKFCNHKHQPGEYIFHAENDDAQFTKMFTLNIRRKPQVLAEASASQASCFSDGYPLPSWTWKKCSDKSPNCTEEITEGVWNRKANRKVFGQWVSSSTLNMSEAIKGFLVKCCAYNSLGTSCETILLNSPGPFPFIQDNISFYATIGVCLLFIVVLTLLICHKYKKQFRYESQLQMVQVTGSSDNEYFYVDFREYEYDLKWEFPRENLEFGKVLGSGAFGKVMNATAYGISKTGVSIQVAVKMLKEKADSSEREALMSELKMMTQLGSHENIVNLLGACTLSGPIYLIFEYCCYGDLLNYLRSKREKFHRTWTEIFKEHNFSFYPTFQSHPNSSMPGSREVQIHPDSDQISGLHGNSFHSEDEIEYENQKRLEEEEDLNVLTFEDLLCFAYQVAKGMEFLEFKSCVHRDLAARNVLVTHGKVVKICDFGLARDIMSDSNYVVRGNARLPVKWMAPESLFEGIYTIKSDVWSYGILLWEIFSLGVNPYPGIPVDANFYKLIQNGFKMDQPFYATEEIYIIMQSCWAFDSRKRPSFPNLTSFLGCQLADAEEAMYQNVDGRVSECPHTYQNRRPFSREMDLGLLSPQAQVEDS
pIC50: −log10 of the molar value.

| Compound | pIC50 |
| --- | --- |
| C[C@H]1CN(c2c(NC(=O)c3ccc(F)c(-c4c(F)cccc4F)n3)cnc3c2CC[C@H]3O)C[C@@H](N)[C@@H]1O.O=P(O)(O)O [INCB053914] | < 4.70 |

Just for reference, paper PMC6013247 is where these values come from.
